Listed molecules paired with reported growth
system: IGROV1 ovarian; assay: NCI-60 one-dose screen, 48 h (100 = growth as untreated, 0 = no growth, -100 = all killed); conditions: 10 µM unless noted
Compounds without any hit were thinned out: in the full panel of roughly 83,000, 20% have a hit.

molecule: Cc1cccc(NC(=O)N/C(N)=N/c2nc(C)c(C)s2)c1
result.units: %
growth: 47.5
--
molecule: Cc1ccc(/C=C2\C(=O)N(C)c3ccc(S(=O)(=O)Nc4ccc(C(C)(C)C)cc4)cc32)s1
result.units: %
growth: 63.9
--
molecule: Cn1c2c(c3ccc(Cl)c(Cl)c31)C(C#N)C1(CCNCC1)NC2=O (stereo not given)
result.units: %
growth: -19.3
--
molecule: N#CC1=C(NC=O)Oc2c(ccc3ccccc23)C1c1ccccc1 (stereo not given)
result.units: %
growth: 38.6
--
molecule: O=c1[nH][n+](-c2ccc(Cl)cc2)no1
result.units: %
growth: 70.5

---

Test system: COLO 205 colon
Assay: NCI-60 one-dose screen, 48 h (100 = growth as untreated, 0 = no growth, -100 = all killed)
Conditions: 10 µM unless noted
Description: Cells are grown in 96 well plates and exposed to the test compound for 48 hours. Compounds are tested at a single concentration, which is 10^-5 M for most compounds. The reported endpoint is percent growth (GI% or GIPRCNT), where numbers from 0 - 100% represent growth inhibition, and numbers from -100% - 0 represent cell death. For example, a value of 40 represents 60% growth inhibition. A value of 0 means no net growth occurred over the course of the experiment. […]
About 83,000 compounds went through this panel and 20% of them were active in at least one assay; those are over-represented in the sample as a whole. Calls of active or inactive are those of the source. Rule for the calls: active = growth percent below 10; inactive = the rest.
experimental.readout: growth

compound: Cc1ccc(C2SCC(=O)N2Cc2ccccc2)cc1 (stereo not given)
value.measured: 109% (inactive)
--
compound: COc1cc(C(=O)/C=C/c2c(-c3ccc(F)cc3)nc3sc(C)cn23)cc(OC)c1OC
value.measured: 52% (inactive)
--
compound: N#C/C(=C\c1ccc(-c2ccccc2F)o1)c1nc(-c2ccco2)cs1
value.measured: 99.6% (inactive)
--
compound: Cc1ccc(Cl)c(NS(=O)(=O)c2ccc(-c3cnc(C4CC4)o3)cc2)c1
value.measured: -0.408% (active)
--
compound: COC(=O)[C@]12CC[C@@H](C)[C@H](C)[C@@H]1C1=CC[C@@H]3[C@@]4(C)C(C=O)=C[C@@](C)(COC(C)=O)C4=CC[C@@]3(C)[C@]1(C)CC2
value.measured: -66.5% (active)
--
compound: CCN(CC)c1nc(SCC(=O)Nc2nc3ccc(C)cc3s2)nc(-c2ccccc2)c1C#N
value.measured: 102% (inactive)
--
compound: O=[N+]([O-])c1ccc(C2CC(c3ccccc3)=Nc3ccccc3S2)cc1 (stereo not given)
value.measured: 118% (inactive)
--
compound: COc1cccc(-c2nc3sccn3c2/C=C/C(=O)c2ccc(C(F)(F)F)cc2)c1
value.measured: 102% (inactive)
--
compound: CCCCOc1nc2ccccc2cc1C1CNC(=O)c2ccccc2N1 (stereo not given)
value.measured: 9.84% (active)
--
compound: NC(=S)N/N=C/Cc1ccccc1
value.measured: 97.2% (inactive)
--
compound: O=C1CCC2=C3C4CCCCC4C(=O)C4CCCC(OC2C1)C34 (stereo not given)
value.measured: 75.3% (inactive)
--
compound: O=c1[nH]nc(-c2ccccc2)c2c(-c3ccccc3)onc12
value.measured: 11.3% (inactive)
--
compound: Cc1nc2c(c(N3CCCc4ccccc43)n1)CCC2
value.measured: -59.5% (active)
--
compound: Nc1cc2c3c(cccc3c1)C(=O)N(CCN1CCCC1)C2=O
value.measured: 14% (inactive)
--
compound: Cc1nn(-c2ccccc2)c2nc3c(c(-c4ccc(Cl)cc4)c12)CNC1(CCSCC1)N3
value.measured: 94.5% (inactive)
--
compound: N#Cc1c(N)nc2c(C#N)c(NC(=O)c3ccccc3)nn2c1-c1ccccc1
value.measured: 103% (inactive)
--
compound: O=c1c2c3c(sc2n2c(-c4cc(-c5ccccc5)nn4-c4ccccc4)nnc2n1Cc1ccccc1)CCCC3
value.measured: 86% (inactive)
--
compound: C=C1C(=O)O[C@H]2[C@H]1CC/C(COC(=O)C(=O)c1cn(C)c3ccc(OC)cc13)=C\CC[C@@]1(C)O[C@@H]21
value.measured: -57% (active)
--
compound: COCCc1ccc(OCC(O)CNC(C)C)cc1 (stereo not given)
value.measured: 106% (inactive)
--
compound: CCCCc1ccc(Nc2ccc(Nc3ccc(CCCC)cc3S(=O)(=O)O)c3c2C(=O)c2ccccc2C3=O)c(S(=O)(=O)O)c1
value.measured: 101% (inactive)
--
compound: OC(COc1ccccc1Cl)COc1ccccc1Cl
value.measured: 112% (inactive)
--
compound: CCN1C(=O)N(CC)C2C1NN=c1s/c(=C\c3cccs3)c(=O)n12 (stereo not given)
value.measured: -6.95% (active)
--
compound: C[n+]1cc2c3c(ccc2c2ccc4cc5c(cc4c21)OCO5)OCO3
value.measured: -84.5% (active)
--
compound: COc1cc(N=Nc2cc(Cc3ccc(N(C)C)cc3)c(N)cc2N(C)C)c2ncccc2c1
value.measured: -33.7% (active)
--
compound: COc1ccc(-c2nc(SCCC(C)C)nc(N/N=C\c3ccccc3O)c2C#N)cc1
value.measured: 96.4% (inactive)
--
compound: NC(=S)Nc1cccc(O)c1
value.measured: 129% (inactive)
--
compound: COc1cccc2c1C(=O)c1c(O)c3c(c(O)c1C2=O)CC(O)(/C(C)=N/NC(=O)CCCCC(=O)N/N=C(\C)C1(O)Cc2c(O)c4c(c(O)c2C(OC2CC(N)C(O)C(C)O2)C1)C(=O)c1c(OC)cccc1C4=O)CC3OC1CC(N)C(O)C(C)O1 (stereo not given)
value.measured: -91.9% [5 µM] (active)
--
compound: Cc1cccc(-c2nc(N(C)c3ccc4ncsc4c3)c3ccccc3n2)n1
value.measured: 57.3% (inactive)
--
compound: O=c1c2cc(F)ccc2sc2c(NCCN3CCCCC3)nc3ccccc3c12
value.measured: 48% (inactive)
--
compound: CC1(C)OC2C(CO[Si](C)(C)C(C)(C)C)OC(n3c(I)c(C#C[Si](C)(C)C)c(=O)[nH]c3=O)C2O1 (stereo not given)
value.measured: 111% (inactive)
--
compound: Cc1ccc(S(=O)(=O)n2cc(CNc3ccc(N4CCOCC4=O)cc3)c3ccccc32)cc1
value.measured: 85.1% (inactive)
--
compound: Cc1cc(=O)[nH]c(N=Nc2c(O)[nH]c3ccccc23)n1
value.measured: 89.5% (inactive)
--
compound: COc1ccc(C2CC(c3cccc(OC)c3)=NN2C(=O)c2cc(OC)c(OC)c(OC)c2)cc1 (stereo not given)
value.measured: -1.64% (active)
--
compound: COc1ccc(OC)c2c1[nH]c(=O)c1c3ncccc3cn21
value.measured: 22.8% (inactive)
--
compound: C=CC(=O)Nc1cccc(Oc2nccc(Nc3nnc(C4CC4)s3)n2)c1
value.measured: 107% (inactive)
